experimentalSystem: RUNX1 (UniProt Q01196)
Sequence (Q01196 whole entry): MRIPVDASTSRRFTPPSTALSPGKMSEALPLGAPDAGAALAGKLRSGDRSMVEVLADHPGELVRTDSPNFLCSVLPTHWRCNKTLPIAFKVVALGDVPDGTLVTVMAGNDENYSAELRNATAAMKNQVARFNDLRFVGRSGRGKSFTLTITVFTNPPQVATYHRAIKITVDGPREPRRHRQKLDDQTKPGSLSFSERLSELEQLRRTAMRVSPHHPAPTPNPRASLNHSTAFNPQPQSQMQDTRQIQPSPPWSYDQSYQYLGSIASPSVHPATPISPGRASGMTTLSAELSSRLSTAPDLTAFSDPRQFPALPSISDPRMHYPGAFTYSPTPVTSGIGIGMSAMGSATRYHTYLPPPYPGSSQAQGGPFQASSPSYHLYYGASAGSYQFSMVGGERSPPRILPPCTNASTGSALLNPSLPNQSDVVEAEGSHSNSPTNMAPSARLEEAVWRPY
testMethodNotes: RUNX1 binding intensity (PBM fluorescence), RUNX1 alone (arbitrary fluorescence units); higher = stronger binding
condition: RUNX1 concentration 2 nM; ETS1 concentration 0 nM
For each of the sequences below, state its RUNX1 binding intensity.
One number for each entry.

// worked examples, RUNX1 binding intensity included
{"columns": ["orderedResidues", "experimentalSystem", "RUNX1 binding intensity"],
 "data": [
  ["GACCTGCCTTCCGGCCTCCGTCACATGACCGCACAG", "RUNX1 (UniProt Q01196)", 1110],
  ["GTGCTGAGCAGCTTCCCGTCTGCGGTGAAGACAGCC", "RUNX1 (UniProt Q01196)", 1150],
  ["ACCCCAGGTACCGGAAGACCACAATTCCCAGGAGTC", "RUNX1 (UniProt Q01196)", 1020],
  ["ACTACAACTTCCGACTTGCATCACTGCGGTGGCGCT", "RUNX1 (UniProt Q01196)", 942],
  ["CACTTCCTGCCCTCTTCCACTTTCAAAACCACATCA", "RUNX1 (UniProt Q01196)", 4540]
]}

Batch request: RUNX1 binding intensity per item, same order as input.
1. GCAGCTCTGGCAGGATGCGGTTAAATATGTAGCCAC
2. AATCCACCGGAAACACTTAGACGCCGCAACCCCAGT
3. TGTTTTTGTTTCCGTTTACAAACCACAACAAAGGTG
4. TCCACATCCTGCTCCTCGGGTTTGCGGCGAGGACTC
5. AGGCAGCACAGGAAGTTATAACCACATGTACACTTG

Reply text:
2690
895
2390
809
781

----------
experimentalSystem: ETS1 (UniProt P14921)
Sequence: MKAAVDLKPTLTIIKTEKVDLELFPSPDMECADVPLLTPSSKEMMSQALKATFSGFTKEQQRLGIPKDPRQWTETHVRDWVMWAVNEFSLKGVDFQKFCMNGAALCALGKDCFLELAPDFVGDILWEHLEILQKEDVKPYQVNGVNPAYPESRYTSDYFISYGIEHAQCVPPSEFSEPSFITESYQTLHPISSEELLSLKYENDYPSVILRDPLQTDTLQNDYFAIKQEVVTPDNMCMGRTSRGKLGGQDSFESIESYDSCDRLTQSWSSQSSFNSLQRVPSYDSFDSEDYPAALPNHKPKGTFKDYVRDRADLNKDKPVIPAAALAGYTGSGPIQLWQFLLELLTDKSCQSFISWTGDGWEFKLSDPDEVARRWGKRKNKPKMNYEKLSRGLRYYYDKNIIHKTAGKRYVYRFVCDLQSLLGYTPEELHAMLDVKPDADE
testMethodNotes: ETS1 binding intensity (PBM fluorescence) in presence of RUNX1, normalised to ETS1-only experiment (arbitrary fluorescence units); higher = stronger binding
condition: ETS1 concentration 1 nM; RUNX1 concentration 25 nM
Can you tell me ETS1 binding intensity for the items I'm about to list?
Answers are plain numbers.

Reference set, count: 3
{"columns": ["orderedResidues", "ETS1 binding intensity"],
 "data": [
  ["ACCGGATGCCGGGGCACCGCCAGATGTGGCCACGAG", 1730],
  ["ATGGCGAAGCAGGATGCCCTCAACCCACATACGGCA", 927],
  ["CCTCGGTTCGGAAACGGCGAAAGCAAACCGCAAGGA", 3890]
]}

Hi team, please reply with ETS1 binding intensity for each item in this list.
1. GCTGCTTCCGGCCGCTGGTCGCAGGGCTGCGGGACT
2. CCATGAGGAGGGAGGAAATAGTGGTACGAGGGCTGC
3. CTCCTGTTCCGGCTCAAAGGGAAACCGCTGCTTTTC

Reply text:
1: 1000; 2: 1040; 3: 907

Below is a list of sequences. For each, state its recorded ETS1 binding intensity.
1. GCTTACGTCACGTCCGGCGCCTGCGGCCCACCCCTC
2. AATGCAGCATTTCCTCTCCAGTTCACCACAGGCCCC
3. CTCACTCATCTGACTTCCTGCGGTTTACGACAACAG
4. GGTCTCACCGCTCTTCCGCTTGCGGTTTCGGGGGCC

Reply text:
506
634
1970
5370

Below are some sequences; for each one, tell me its ETS1 binding intensity.
1. CACGGAGCCACTTCCGGCGGCTGTGGGCGCAAAACC
2. AATTGTCAATGGCAGGAAGCCACCACATGAAGAGAT

Reply text:
1: 4210; 2: 1650

Dear colleague, could you please provide ETS1 binding intensity for the sequences listed below?
1. CACCTAAAGCCATTGGGATGTGGTTTCTCTTTTTCA
2. CCTGGGCAAGGCCGGATGCCTGTGGCTTCCAGGCTG
3. ACCGCCGGAAGTTTCTGCCGCGGCTTTGCGGGGACG
4. CTGTCCGCTACATCCGGGACCTGCGGGACCGCCGAT

Reply text:
[894, 3350, 9610, 2430]

For each listed entry, give its ETS1 binding intensity.
1. GACCTGACAACATCCTGGCGCAGTGGGTTGGCCCTG
2. GGTCCGGATGTATAAAGCGCGGCCCCCTGCGGGGAG
3. GGGGGAATGTAGGAAGTATCATCGCCCACAAGAAAG
4. TGGGATTCTCACTTCCGATCAGCGGTCCTGAACCCG
5. TGAGGGCATAGGAAGTGATGGCCGCAAGGGGATGCC
6. ACACCGGAAGCCCAACAGCATGCCGAGTAACCACCC
7. ACGGGGAAGAACGGAAGTGGTTTCCATGATGGTCTG

Reply text:
420
1020
807
622
2390
1170
9080

// for each sequence in input: emit ETS1 binding intensity
1. TAACTACTTCCTTTTACTATCTACCACAATTTAATT
2. TGAAGCCATGGTTTCCTGTCTGCGGCTCAGATCAAG
3. AATAAACAGGAAGGTCTCTTGGAGCTGTGGTCTTGG
4. AATGCCGGATATTGGTTCTGGTAAGCCACAAAAAAG
5. CCGCCGCGACACTTCCGGCGGCCACCACAGGGTATT

Reply text:
[510, 1600, 1110, 4090, 3020]

For each of the sequences below, state ETS1 binding intensity.
1. AAAAGGCACCAGGAAATGACAGCACCGCAGCACGCC
2. ATATATCACCCCTTCCTTGCAAAACCACAAGACCAA
3. ACGCTGGAATCGCGGAAACCGCCGGTGCACGTTGGA
4. TTCAGTCCTGGTTTCCTGTGGTTCTAGGATCTTTAT
5. CTGCCTGGCACAGGATGTGGTCATTTGTGCTGAGGA
6. CTAGCAGGAAACAGACAGACCCAGCCACAGAATCTC

Reply text:
[2020, 1490, 627, 957, 17900, 519]

Give measured ETS1 binding intensity for every item shown.
1. TCTGGGCTGACTTCCTGGCTTCGTCCCACAACTTCA
2. CTGTCCACATAAGGAAGTTGGGACCACAAGGTCTTT

Reply text:
1. 617
2. 1350

----------
experimentalSystem: ETS1 (UniProt P14921)
Sequence: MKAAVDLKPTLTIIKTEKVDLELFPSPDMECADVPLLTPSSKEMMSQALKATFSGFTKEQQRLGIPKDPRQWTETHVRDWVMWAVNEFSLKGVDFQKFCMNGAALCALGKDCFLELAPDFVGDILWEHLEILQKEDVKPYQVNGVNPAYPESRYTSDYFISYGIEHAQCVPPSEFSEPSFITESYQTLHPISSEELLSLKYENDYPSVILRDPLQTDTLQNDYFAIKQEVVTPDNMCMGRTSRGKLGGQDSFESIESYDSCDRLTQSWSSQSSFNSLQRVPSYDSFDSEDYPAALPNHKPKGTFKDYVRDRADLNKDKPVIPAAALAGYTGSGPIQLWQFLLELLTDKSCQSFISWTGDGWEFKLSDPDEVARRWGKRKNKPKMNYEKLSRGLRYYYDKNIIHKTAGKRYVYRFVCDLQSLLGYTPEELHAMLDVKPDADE
testMethodNotes: ETS1 binding intensity (PBM fluorescence) in presence of RUNX1, normalised to ETS1-only experiment (arbitrary fluorescence units); higher = stronger binding
condition: ETS1 concentration 1 nM; RUNX1 concentration 25 nM
Provide the recorded ETS1 binding intensity for the entries that follow.
Numbers only.

{"columns": ["orderedResidues", "experimentalSystem", "ETS1 binding intensity"],
 "data": [
  ["TACACTCCCACATCCGCTGCGGCGCAACTCACAACA", "ETS1 (UniProt P14921)", 1260],
  ["GTACGACAGCGGGTTCCGGTGACCACGAAGGCGGCA", "ETS1 (UniProt P14921)", 467],
  ["GAAATCACATCCTTTTGCAAAACCACAGGTGTTTTG", "ETS1 (UniProt P14921)", 1500],
  ["GTTGGGAGGCGCACATCCGGCGGTTACCCGGTGCTT", "ETS1 (UniProt P14921)", 3090],
  ["AGCAGGAAGTATGTTGAAAGTCATAACCACAGCAAA", "ETS1 (UniProt P14921)", 3050],
  ["CAGGGTGTCGGCTTCCGGCGGTTGCCCACTTTCGGC", "ETS1 (UniProt P14921)", 1090],
  ["TTTCGAGAAAACCGGAAGTGCGTGGTCACGCCCCGC", "ETS1 (UniProt P14921)", 38100],
  ["CACTTCCCGTGGGAGGATCTTGGGCTGCGGCTAGGG", "ETS1 (UniProt P14921)", 802],
  ["TCAGGGGAGCGAGCAGGAAGTGGTAAGATTTGATAG", "ETS1 (UniProt P14921)", 7210],
  ["CCGTGTCAGTGAGGATGTGGGCTGCCGGGCTGGGCG", "ETS1 (UniProt P14921)", 753]
]}

Could you report ETS1 binding intensity for every entry in the following list?
1. AGGCAAACAGGATGTTCCTCTCCCACATGCAGACTT
2. ACGCCGCGCATCCGCGCTTTACGGCGGCCGCAAAAT
3. AGTGGCAGTGCAGGAAGTGGTTTGTCTGGTACAATC

Reply text:
1. 3770
2. 563
3. 6800
